study_system: Torsin-1A (Homo sapiens) (UniProt O14656)
Sequence (O14656 whole entry, looked up): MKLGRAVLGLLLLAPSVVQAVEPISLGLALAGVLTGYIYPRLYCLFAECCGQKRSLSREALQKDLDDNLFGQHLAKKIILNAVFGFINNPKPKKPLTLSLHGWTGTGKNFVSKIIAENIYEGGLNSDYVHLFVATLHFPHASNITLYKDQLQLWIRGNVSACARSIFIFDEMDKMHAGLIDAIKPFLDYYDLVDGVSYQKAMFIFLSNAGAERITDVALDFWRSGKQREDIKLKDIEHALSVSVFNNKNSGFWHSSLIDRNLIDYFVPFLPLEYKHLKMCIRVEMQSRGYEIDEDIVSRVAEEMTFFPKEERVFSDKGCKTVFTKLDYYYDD
measurement_protocol: small-molecule binders of mutant TOR1A in lysate, primary screen, cell lysate, small-molecule microarray, COS7 lysate, 635/667 nm fluorescence (AID 1150);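 note: score pools 667 nm emission and signal to noise measuring lysate protein binding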
recorded_conditions: COS7 hTOR1A mutant lysate, 635 nm fluorescence, higher = more signal
Measured composite z-score values are reported for all entries that follow.
reported_metric: composite z-score

COc1cc2c(cc1O)C(C)N(Cc1ccc([N+](=O)[O-])o1)CC2 (stereo unspecified): 0.897
COCCCNC(=O)[C@@]1(Cc2ccccc2N=[N+]=[N-])N=C(c2ccc(OCCCO)cc2)O[C@H]1c1ccccc1: 3.61
CCOc1cc(C(O)C2C=CC3C(=O)N(c4ccccc4)C(=O)C3N2Nc2ccc(C#N)cc2)ccc1O (stereo unspecified): 0.115
C=CCC(OC(C)=O)[C@@H]1[C@@H](N(Cc2cc3ccccc3o2)C(=O)c2ccc(-c3ccccc3)cc2)c2cc(OCCCO)ccc2N1C(=O)c1ccc2ccccc2c1 (stereo partly specified): -0.0892
OCC1CC(c2ccccc2)=NO1 (stereo unspecified): 0.322
CC(=O)NCCCC[C@@H]1NC(=O)[C@H]2C[C@@H](C(=O)NCCCC[N+](C)(C)C)[C@@H](c3cccc(OCCO)c3)N2C1=O: 2.34
C=C(/C(=C/C[C@H](OC(C)=O)c1cccc(OCCO)c1)c1cnc2ccccc2c1)C(C)C: 0.491
CC(=O)c1ccc(C(O)C2C=CC3C(=O)N(c4ccccc4)C(=O)C3N2Nc2ccc(C#N)cc2)cc1 (stereo unspecified): 0.261
COCCCNC(=O)[C@@]1(Cc2ccccc2N=[N+]=[N-])COC(c2ccc(OCCCO)cc2)=N1: 0.614
O=C1OCCC/C=C\[C@H]2OC34C=CCN(CCN5CCOCC5)C(=O)[C@H]3N(CCCCCCO)C(=O)[C@@H]4C12 (stereo partly specified): -0.404
O[C@@H](Cc1ccccc1)[C@@H](/C=C/C1CC1)N(CC#Cc1ccccc1)Cc1cccc(Cl)c1: -0.976

----------
measurement_protocol: anti-His antibody binders, primary screen, artefact control for SMM control protein annotation, biochemical, small-molecule microarray, 635 nm fluorescence (AID 1128);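 note: score merges feature fluorescence with signal-to-noise for each printed compound spot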
recorded_conditions: anti-His Alexa647 antibody binding, higher = more signal
reported_metric: composite z-score

COc1ccc(-c2cc3c(c(CCc4ccccc4)n2)[Si](C(C)C)(C(C)C)OC3)cn1: 0.0933
CO[C@H]1O[C@H](CO)[C@@H](OC(=O)Nc2ccccc2-c2ccccc2)[C@H](OC(=O)Nc2ccc3c(c2)OCO3)[C@H]1OC(=O)Nc1ccc2c(c1)OCO2: 1.02
COc1ccc(CN(C2=CC[C@@]3(C(N)=O)C(=O)C(Cl)=C(Cl)C(=O)[C@@]3(C#N)C2)S(=O)(=O)c2ccc(Br)cc2)cc1: 1.89

----------
measurement_protocol: MM1S myeloma cell viability, profiling panel, resazurin fluorescence, basal, 24 h, PK04 Diversity Set (AID 1174);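 note: MM1S multiple myeloma cell line; test concentration not given here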
recorded_conditions: higher = more signal, called active from +8 up or from −8 down
Each item that follows carries a reported z-score.
reported_metric: z-score

C=CCC(OC(C)=O)[C@@H]1[C@@H](N(Cc2cccc3ccccc23)C(=O)Cc2ccc(OC)cc2)c2cc(OCCCO)ccc2N1C(=O)c1ccc2ccccc2n1 (some centres not stated): -0.415
CCOC(=O)[C@H]1[C@@H]2C(=O)N3CCC[C@H]3[C@H](O[Si](C(C)C)(C(C)C)C(C)C)[C@H]2C=C2CCN(S(=O)(=O)c3ccc(C)cc3)C[C@H]21: -1.84
COCCOC(=O)N1C(=O)[C@@]2(c3cc(C#CC4(O)CCCCCC4)ccc31)[C@H](c1ccc(O)cc1)N1[C@H](c3ccccc3)[C@H](c3ccccc3)OC(=O)[C@H]1[C@@H]2C(=O)NC[C@H](O)c1ccccc1: -1.45
C[C@]1(C(=O)NC2CC2)c2ccccc2C(=O)N(Cc2ccccc2)[C@H]1c1ccc(CO)cc1: 1.62
C=CC[C@]1(C(=O)NCCN2CCOCC2)N=C(c2ccc(OCCCO)cc2)O[C@H]1c1ccccc1CN=[N+]=[N-]: 0.33
C=C(COC)/C(=C/C[C@H](OC(=O)c1ccncc1)c1ccccc1OCCO)c1cnc2ccccc2c1: 0.247
C=CCN1C(=O)[C@@]2(CCS(=O)(=O)c3ccccc3)N=C(c3ccc(OCCCO)cc3)O[C@H]2c2ccccc21: -0.427

Just for reference, PubChem BioAssay is where these values come from.
